- assay-system: PKA-Iα (Homo sapiens, UniProt P10644)
- Construct: made in house
- Sequence (P10644 whole entry): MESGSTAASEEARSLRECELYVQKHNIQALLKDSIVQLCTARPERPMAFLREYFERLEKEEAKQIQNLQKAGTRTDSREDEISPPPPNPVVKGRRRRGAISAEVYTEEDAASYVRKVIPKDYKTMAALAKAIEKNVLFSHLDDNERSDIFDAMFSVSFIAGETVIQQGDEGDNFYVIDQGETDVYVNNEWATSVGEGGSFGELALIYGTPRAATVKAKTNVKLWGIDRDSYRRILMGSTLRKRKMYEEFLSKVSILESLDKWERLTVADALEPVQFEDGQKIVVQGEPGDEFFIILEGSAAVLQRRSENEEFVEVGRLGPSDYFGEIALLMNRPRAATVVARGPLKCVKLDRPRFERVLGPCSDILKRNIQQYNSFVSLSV
- procedure-text: PKA activity assay (coupled spectrophotometric, Kemptide), PKA-Iα
- Assay type: biochemical
- condition-label: PKAIα; concentration 1.00E-03 μM
metric: A (PKA activity)
Include the unit right after the number.

COC1C2OP(=O)(O)OCC2OC1n1c(Sc2ccc(Cl)cc2)nc2c(N)ncnc21 [D-007, 8-pCPT-2′-O-Me-cAMP, reference compound]: 3.6515 U/mg

[ask] Param item = `Cc1ccc(CSc2nc3c(N)ncnc3n2[C@@H]2O[C@@H]3CO[P@](O)(=S)O[C@H]3[C@H]2O)cc1` ; retrieve measured A (PKA activity).
[reply] 3.2928 U/mg

[ask] What about this compound? `Nc1ncnc2c1nc(SCc1ccccc1)n2[C@@H]1O[C@@H]2CO[P@](O)(=S)O[C@H]2[C@H]1O`
[reply] 3.7632 U/mg

[ask] Continue with Nc1ncnc2c1ncn2[C@@H]1O[C@@H]2COP(=O)(O)O[C@H]2[C@H]1O [cAMP, reference compound]
[reply] 1.4399 U/mg
